Values from patent US20230265116A1

# target.system: EGFR L858R/T790M/C797S (BaF3-LTC cells) (Homo sapiens, UniProt P00533, C797S/L858R/T790M)
# Construct: expressed in transfected cells; host or cells: BaF3
# Sequence (P00533 25-1210 T790M/C797S/L858R): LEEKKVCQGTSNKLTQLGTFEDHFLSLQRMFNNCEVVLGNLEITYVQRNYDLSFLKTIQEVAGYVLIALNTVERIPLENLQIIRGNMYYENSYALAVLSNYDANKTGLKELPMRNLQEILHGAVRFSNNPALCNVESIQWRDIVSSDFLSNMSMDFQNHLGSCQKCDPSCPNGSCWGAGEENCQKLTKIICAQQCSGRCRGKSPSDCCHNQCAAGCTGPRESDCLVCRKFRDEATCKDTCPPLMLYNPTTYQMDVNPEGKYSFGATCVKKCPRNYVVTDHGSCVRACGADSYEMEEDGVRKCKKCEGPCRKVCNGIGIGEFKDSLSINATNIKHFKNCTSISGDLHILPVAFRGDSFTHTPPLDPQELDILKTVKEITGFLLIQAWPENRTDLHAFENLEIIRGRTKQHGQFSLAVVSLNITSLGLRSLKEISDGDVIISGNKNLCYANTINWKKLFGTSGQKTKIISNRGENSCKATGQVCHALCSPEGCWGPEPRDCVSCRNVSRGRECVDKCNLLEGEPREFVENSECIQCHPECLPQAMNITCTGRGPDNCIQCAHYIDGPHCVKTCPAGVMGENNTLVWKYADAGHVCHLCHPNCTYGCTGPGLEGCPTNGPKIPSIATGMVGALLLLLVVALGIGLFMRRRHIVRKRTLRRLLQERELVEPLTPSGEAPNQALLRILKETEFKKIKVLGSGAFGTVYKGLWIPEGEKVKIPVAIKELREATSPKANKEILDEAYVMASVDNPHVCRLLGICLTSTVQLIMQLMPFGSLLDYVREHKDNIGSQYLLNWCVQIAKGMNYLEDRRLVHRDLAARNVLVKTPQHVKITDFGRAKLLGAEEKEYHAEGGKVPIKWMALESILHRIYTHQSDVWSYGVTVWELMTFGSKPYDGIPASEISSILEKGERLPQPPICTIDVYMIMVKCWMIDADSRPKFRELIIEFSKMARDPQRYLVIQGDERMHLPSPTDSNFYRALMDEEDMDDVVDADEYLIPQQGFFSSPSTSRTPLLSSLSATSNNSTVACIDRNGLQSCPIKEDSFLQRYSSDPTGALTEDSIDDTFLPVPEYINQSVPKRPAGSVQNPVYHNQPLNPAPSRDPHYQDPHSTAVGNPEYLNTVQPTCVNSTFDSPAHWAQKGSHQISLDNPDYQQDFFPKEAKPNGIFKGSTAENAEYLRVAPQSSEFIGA
# method.summary: EGFR degradation HTRF assay, BaF3-LTC cells
# Format: cell-based
# condition.set: BaF3-LTC, 16h treatment, maximum percentage of degradation; read-out: LTC Dmax (%)
value.type: Dmax (%)

{"columns": ["compound", "measure.unit", "Dmax"],
 "data": [
  ["CCc1cc(Nc2ncc(Br)c(Nc3ccc4nccnc4c3P(C)(C)=O)n2)c(OC)cc1N1CCC(N2CCN(C[C@H]3CCN(c4ccc5c(c4)CN(C4CCC(=O)NC4=O)C5=O)C3)CC2)CC1 (stereo partly drawn) [Example 237]", "%", 92.5],
  ["CCc1cc(Nc2ncc(Br)c(Nc3ccc4nc(CO)ccc4c3P(C)(C)=O)n2)c(OC)cc1N1CCC(N2CCN(CCc3cc(F)c(C4CCC(=O)NC4=O)c(F)c3)CC2)CC1 (stereo not drawn) [Example 329]", "%", 92.4],
  ["CCc1cc(Nc2ncc(Br)c(Nc3ccc4nccnc4c3P(C)(C)=O)n2)c(OC)cc1N1CCC(N2CCN(CCCc3cc(F)c(C4CCC(=O)NC4=O)c(F)c3)CC2)CC1 (stereo not drawn) [Example 205]", "%", 87.7]
]}

---

# target.system: EGFR L858R/T790M/C797S (BaF3-LTC cells) (Homo sapiens, UniProt P00533, C797S/L858R/T790M)
# Construct: expressed in transfected cells; host or cells: BaF3
# method.summary: EGFR degradation HTRF assay, BaF3-LTC cells
# Type: cell-based
# condition.set: BaF3-LTC cells; EGFR degradation, IC50 (DC50) from curve fit; read-out: DC50(nM) BaF3-LTC
value.type: DC50 (nM)

{"columns": ["compound", "DC50 / nM"],
 "data": [
  ["CCOc1cc(N2CCC(N3CCN(CC4CN(c5cccc6c5oc(=O)n6C5CCC(=O)NC5=O)C4)CC3)CC2)c(CC)cc1Nc1ncc(Br)c(Nc2ccc3nc(CC)ncc3c2P(C)(C)=O)n1 (centres unmarked)", 5.25]
]}

[A] CCc1cc(Nc2ncc(Br)c(Nc3ccc4nc(C#N)ccc4c3P(C)(C)=O)n2)c(OC)cc1N1CCC(N2CCN(C(=O)[C@@H]3CCN(c4cc(F)c([C@H]5CCC(=O)NC5=O)c(F)c4)C3)CC2)CC1
[B] COc1cc(N2CCC(N3CCN(C(=O)[C@@H]4CCN(c5cc(F)c([C@H]6CCC(=O)NC6=O)c(F)c5)C4)CC3)CC2)c(C)cc1Nc1ncc(Br)c(Nc2ccc3nc(C)c(F)cc3c2P(C)(C)=O)n1
[C] COc1cc(N2CCC(N3CC(C(=O)N4CCC(c5cc(F)c(C6CCC(=O)NC6=O)c(F)c5)CC4)C3)CC2)c(C)cc1Nc1ncc(Br)c(Nc2ccc3nc(C)ccc3c2P(C)(C)=O)n1 (centres unmarked)
[D] CCc1cc(Nc2ncc(Br)c(Nc3ccc4c(=O)n(CC)ncc4c3P(C)(C)=O)n2)c(OC)cc1N1CCC(N2CCN(CCc3cc(F)c([C@H]4CCC(=O)NC4=O)c(F)c3)CC2)CC1
Rank items: key DC50, increasing. Arrange the labels as the request states and list them.
B, A, C, D
(B: 4.07 nM, A: 9.62 nM, C: 14.8 nM, D: 83.7 nM)

---

# target.system: EGFR L858R/T790M/C797S (BaF3-LTC cells) (Homo sapiens, UniProt P00533, C797S/L858R/T790M)
# Construct: expressed in transfected cells; host or cells: BaF3
# method.summary: EGFR degradation HTRF assay, BaF3-LTC cells
# Format: cell-based
# condition.set: BaF3-LTC cells; EGFR degradation, IC50 (DC50) from curve fit; read-out: DC50(nM) BaF3-LTC
value.type: DC50 (nM)

{"columns": ["compound", "val"],
 "data": [
  ["CCc1cc(Nc2ncc(Br)c(Nc3ccc4c(=O)n(C)ncc4c3P(C)(C)=O)n2)c(OC)cc1N1CCC(N2CCN(C(=O)[C@@H]3CCN(c4cc(F)c([C@H]5CCC(=O)NC5=O)c(F)c4)C3)CC2)CC1", 3.63]
]}

[a] CCOc1cc(N2CCC(N3CCN(CCc4cc(F)c([C@H]5CCC(=O)NC5=O)c(F)c4)CC3)CC2)c(CC)cc1Nc1nccc(Nc2ccc3nc(CC)ncc3c2P(C)(C)=O)n1
[b] CCOc1cc(N2CCC(N3CCN(CCc4c(F)ccc5c4n(C)c(=O)n5C4CCC(=O)NC4=O)CC3)CC2)c(CC)cc1Nc1ncc(Br)c(Nc2ccc3nc(CC)ccc3c2P(C)(C)=O)n1 (stereo not shown) [Example 648]
// pick larger DC50 from pair: a vs b Refer to your chosen item by its label in the answer.
a
(a: 294 nM, b: 15.3 nM)

---

# target.system: EGFR L858R/T790M/C797S (BaF3-LTC cells) (Homo sapiens, UniProt P00533, C797S/L858R/T790M)
# Construct: expressed in transfected cells; host or cells: BaF3
# method.summary: EGFR degradation HTRF assay, BaF3-LTC cells
# Assay type: cell-based
# condition.set: BaF3-LTC, 16h treatment, maximum percentage of degradation; read-out: LTC Dmax (%)
value.type: Dmax (%)

{"columns": ["compound", "Dmax [%]"],
 "data": [
  ["CCc1cc(Nc2ncc(Br)c(Nc3ccc4nc(C)ccc4c3P(C)(C)=O)n2)c(OC)cc1N1CCC(N2CCN(C(=O)[C@H]3C[C@H](Nc4cc(F)c(C5CCC(=O)NC5=O)c(F)c4)C3)CC2)CC1 (stereo partly shown)", 95.5],
  ["CCc1cc(Nc2ncc(Br)c(Nc3ccc4nccnc4c3P(C)(C)=O)n2)c(OC)cc1N1CCC(N2CCN(CC3CCN(c4ccc5c(c4)CN(C4CCC(=O)NC4=O)C5=O)CC3)CC2)CC1 (stereo not shown)", 89.3],
  ["CCc1cc(Nc2ncc(Br)c(Nc3ccc4nccnc4c3P(C)(C)=O)n2)c(OC)cc1N1CCC(N2CCN(CCc3ccc(C4CCC(=O)NC4=O)c(F)c3)C[C@@H]2COC)CC1 (stereo partly shown)", 81.5],
  ["CCc1cc(Nc2ncc(Br)c(Nc3ccc4nccnc4c3P(C)(C)=O)n2)c(OC)cc1N1CCC(N2CCN(CC3CN(c4cccc(C5CCC(=O)NC5=O)c4)C3)CC2)CC1 (stereo not shown)", 66.9],
  ["CCc1cc(Nc2ncc(Br)c(Nc3ccc4nccnc4c3P(C)(C)=O)n2)c(OC)cc1N1CCC(N2CCN(C(=O)CCN3CCN(c4ccc5c(c4)C(=O)N(C4CCC(=O)NC4=O)C5=O)CC3)CC2)CC1 (stereo not shown)", 90.4],
  ["CCc1cc(Nc2ncc(Br)c(Nc3ccc4nccnc4c3P(C)(C)=O)n2)c(OC)cc1N1CCC(N2CCN(C(=O)C3CN(c4ccc(C5CCC(=O)NC5=O)c(F)c4)C3)CC2)CC1 (stereo not shown)", 81.8],
  ["CCc1cc(Nc2ncc(Br)c(Nc3ccc4nccnc4c3P(C)(C)=O)n2)c(OC)cc1N1CCC(N2CCN(C3CN(c4ccc(C5CCC(=O)NC5=O)cc4)C3)CC2)CC1 (stereo not shown)", 73.8],
  ["CCc1cc(Nc2ncc(Br)c(Nc3ccc4nccnc4c3P(C)(C)=O)n2)c(OC)cc1N1CCC(N2CCN(C(=O)[C@H]3CCN(c4ccc5c(c4)CN(C4CCC(=O)NC4=O)C5=O)C3)CC2)CC1 (stereo partly shown)", 87.7],
  ["CCc1cc(Nc2ncc(Br)c(Nc3ccc4nc(C)ccc4c3P(C)(C)=O)n2)c(OC)cc1N1CCC(N2CCN(CCN(C)c3cc(F)c(C4CCC(=O)NC4=O)c(F)c3)CC2)CC1 (stereo not shown)", 90.8],
  ["COc1cc(N2CCC(N3CCN(CCC4CCN(c5cc(F)c(C6CCC(=O)NC6=O)c(F)c5)CC4)CC3)CC2)ccc1Nc1ncc(Br)c(Nc2ccc3nccnc3c2P(C)(C)=O)n1 (stereo not shown)", 88.6]
]}

---

# target.system: EGFR L858R/T790M/C797S (BaF3-LTC cells) (Homo sapiens, UniProt P00533, C797S/L858R/T790M)
# Construct: expressed in transfected cells; host or cells: BaF3
# method.summary: EGFR degradation HTRF assay, BaF3-LTC cells
# Type: cell-based
# condition.set: BaF3-LTC cells; EGFR degradation, IC50 (DC50) from curve fit; read-out: DC50(nM) BaF3-LTC
value.type: DC50 (nM)

The following compounds have reported results that may help.
{"columns": ["compound", "val"],
 "data": [
  ["CCc1cc(Nc2ncc(Br)c(Nc3ccc4nc(C)ccc4c3P(C)(C)=O)n2)c(OC2CC2)cc1N1CCC(N2CCN(CCc3cc4oc(=O)n(C5CCC(=O)NC5=O)c4cc3F)CC2)CC1 (stereo not shown) [Example 601]", 8.64],
  ["CCc1cc(Nc2ncc(Br)c(Nc3ccc4c(C)nccc4c3P(C)(C)=O)n2)c(OC)cc1N1CCC(N2CCN(CCc3cc(F)c([C@H]4CCC(=O)NC4=O)c(F)c3)CC2)CC1 [Example 684]", 12.4],
  ["CCOc1cc(N2CCC(N3CCN(CCc4c(C)c(F)cc5c4oc(=O)n5C4CCC(=O)NC4=O)CC3)CC2)c(CC)cc1Nc1ncc(Br)c(Nc2cc(F)c3nc(CC)ccc3c2P(C)(C)=O)n1 (stereo not shown) [Example 593]", 13.2],
  ["CCOc1cc(N2CCC(N3CCN(CCc4cccc5c4oc(=O)n5C4CCC(=O)NC4=O)CC3)CC2)c(CC)cc1Nc1ncc(Br)c(Nc2ccc3c(=O)n(CC)ncc3c2P(C)(C)=O)n1 (stereo not shown) [Example 455]", 3.83],
  ["CCOc1cc(N2CCC(N3CCN(CCCc4cc(OC)cc5c4oc(=O)n5C4CCC(=O)NC4=O)CC3)CC2)c(CC)cc1Nc1ncc(Br)c(Nc2ccc3c(=O)n(CC)ncc3c2P(C)(C)=O)n1 (stereo not shown) [Example 598]", 18.8]
]}

[1] CCOc1cc(N2CCC(N3CCN(C(=O)C4CN(c5cc(F)cc6c5n(C)c(=O)n6C5CCC(=O)NC5=O)C4)CC3)CC2)c(CC)cc1Nc1ncc(Br)c(Nc2ccc3nc(CC)ccc3c2P(C)(C)=O)n1 (stereo not shown) [Example 466]
[2] CCc1ccc2c(P(C)(C)=O)c(Nc3nc(Nc4cc(CC)c(N5CCC(N6CCN(C(=O)CN7CCN(c8cc(F)c([C@H]9CCC(=O)NC9=O)c(F)c8)CC7)CC6)CC5)cc4OC)ncc3Br)ccc2n1 [Example 665]
[3] CCOc1cc(N2CCC(N3CCN(CCCc4cccc5c4oc(=O)n5C4CCC(=O)NC4=O)CC3)CC2)c(CC)cc1Nc1ncc(Br)c(Nc2ccc3nc(CC)ccc3c2P(C)(C)=O)n1 (stereo not shown) [Example 630]
[4] CCc1ccc2c(P(C)(C)=O)c(Nc3nc(Nc4cc(CC)c(N5CCC(C6CCN(CCc7cc(F)c([C@H]8CCC(=O)NC8=O)c(F)c7)CC6)CC5)cc4OC)ncc3Br)ccc2n1 [Example 745]
[5] CCc1ccc2c(P(C)(C)=O)c(Nc3nc(Nc4cc(CC)c(N5CCC(N6CCN(CCc7cccc8c7n(CC)c(=O)n8C7CCC(=O)NC7=O)CC6)CC5)cc4OC)ncc3Br)ccc2n1 (stereo not shown) [Example 453]
Hey, quick one: sort these by DC50, low to high? Reply with the item labels sorted in the order that was asked for.
2, 5, 3, 1, 4
(2: 1.49 nM, 5: 5.7 nM, 3: 8.65 nM, 1: 15.1 nM, 4: 40.3 nM)
